Could you please report measured IC50 for the items listed next?
- Target or system: KRAS G12S (Homo sapiens (Human), UniProt P01116+P62937, G12S)
- Sequence (P01116-2 other isoform, or with tags, fused parts or gaps G12S, one chain of several): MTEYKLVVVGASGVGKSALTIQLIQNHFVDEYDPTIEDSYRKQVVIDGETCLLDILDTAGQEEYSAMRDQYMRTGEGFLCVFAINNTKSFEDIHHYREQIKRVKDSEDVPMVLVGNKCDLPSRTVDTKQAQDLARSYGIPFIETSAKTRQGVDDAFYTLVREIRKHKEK
- Protocol description: Ras-Raf (BRAF RBD) disruption / FRET / MOA assay, KRAS G12S
- Assay type: biochemical
- Details: Ras-Raf disruption/FRET/MOA assay; class symbols; read-out: KRAS G12S FRET data IC50

IC50 recorded for this compound, C=CC(=O)N(C)CCCC(=O)N(C)[C@H](C(=O)N[C@H]1Cc2cc(O)cc(c2)-c2ccc3c(c2)c(c(-c2cccnc2COC)n3CC)CC(C)(C)COC(=O)[C@@H]2CCCN(N2)C1=O)C(C)C , is 0.1 to 1 µM

IC50 recorded for this compound, C=CC(=O)N1CC[C@H](C(=O)N(C)[C@H](C(=O)N[C@H]2Cc3cc(O)cc(c3)-c3ccc4c(c3)c(c(-c3ccc5c(c3)OCCN5C)n4CC)CC(C)(C)COC(=O)[C@@H]3CCCN(N3)C2=O)C(C)C)C1 , is 1 to 10 µM

IC50 recorded for this compound, CC#CC(=O)N1CC[C@]2(CCN([C@H](C(=O)N[C@H]3Cc4cccc(c4)-c4ccc5c(c4)c(c(-c4cccnc4[C@H](C)OC)n5CC)CC(C)(C)COC(=O)[C@@H]4CCCN(N4)C3=O)C(C)C)C2=O)C1 (atropisomer, axis not shown) , is 1 to 10 µM

IC50 recorded for this compound, C=CC(=O)N1CC[C@H](C(=O)N(C)[C@H](C(=O)N[C@H]2Cc3cc(O)cc(c3)-c3ccc4c(c3)c(c(-c3ccc(C5CCN(C)CC5)cc3)n4CC)CC(C)(C)COC(=O)[C@@H]3CCCN(N3)C2=O)C(C)C)C1 , is 1 to 10 µM

IC50 recorded for this compound, C=CC(=O)N1CCN(C(=O)N(C)[C@H](C(=O)N[C@H]2Cc3cc(O)cc(c3)-c3ccc4c(c3)c(c(-c3ccccc3CCOC)n4CC)CC(C)(C)COC(=O)[C@@H]3CCCN(N3)C2=O)C(C)C)C[C@@H]1COC , is 1 to 10 µM

IC50 recorded for this compound, C=CC(=O)N1C[C@@H](F)[C@](F)(C(=O)N(C)[C@H](C(=O)N[C@H]2Cc3cccc(c3)-c3ccc4c(c3)c(c(-c3cccnc3[C@H](C)OC)n4CC)CC(C)(C)COC(=O)[C@@H]3CCCN(N3)C2=O)C(C)C)C1 (atropisomer, axis not shown) , is 1 to 10 µM

IC50 recorded for this compound, CCn1c(-c2cnccc2COC)c2c3cc(ccc31)-c1cc(O)cc(c1)C[C@H](NC(=O)[C@H](C(C)C)N(C)C(=O)[C@H]1CCN(C(=O)C#CCN(C)C)C1)C(=O)N1CCC[C@H](N1)C(=O)OCC(C)(C)C2 [Example A088] , is 0.1 to 1 µM

IC50 recorded for this compound, C=CC(=O)N1CC[C@H](C(=O)N(C)[C@H](C(=O)N[C@H]2Cc3cc(O)cc(c3)-c3ccc4c(c3)c(c(-c3ccc(CC(=O)O)cc3)n4CC)CC(C)(C)COC(=O)[C@@H]3CCCN(N3)C2=O)C(C)C)C1 , is > 10 µM

IC50 recorded for this compound, C=CC(=O)N1CC[C@H](C(=O)N(C)[C@H](C(=O)N[C@H]2Cc3cc(O)cc(c3)-c3ccc4c(c3)c(c(-c3cncc(CCN(C)C)c3)n4CC)CC(C)(C)COC(=O)[C@@H]3CCCN(N3)C2=O)C(C)C)C1 , is 1 to 10 µM

###

Could you please report measured IC50 for the items listed next?
- Target or system: KRAS WT (Homo sapiens (Human), UniProt P01116+P62937)
- Sequence (P01116-2 other isoform, or with tags, fused parts or gaps): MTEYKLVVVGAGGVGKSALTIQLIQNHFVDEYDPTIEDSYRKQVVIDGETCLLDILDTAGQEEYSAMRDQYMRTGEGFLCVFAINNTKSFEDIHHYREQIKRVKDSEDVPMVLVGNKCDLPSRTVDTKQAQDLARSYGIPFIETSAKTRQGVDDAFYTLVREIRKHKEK
- Sequence (P62937 whole entry): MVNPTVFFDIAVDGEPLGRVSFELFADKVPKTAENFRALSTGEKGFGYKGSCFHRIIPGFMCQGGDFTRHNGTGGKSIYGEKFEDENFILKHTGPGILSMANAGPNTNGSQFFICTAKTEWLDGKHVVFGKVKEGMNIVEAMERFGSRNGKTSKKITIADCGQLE
- Protocol description: Ras-Raf (BRAF RBD) disruption / FRET / MOA assay, KRAS WT
- Format: biochemical
- Details: read-out: IC50* KRAS WT FRET data
- Description: The purpose of this biochemical assay is to measure the ability of test compounds to facilitate ternary complex formation between a nucleotide-loaded Ras isoform and cyclophilin A; the resulting ternary complex disrupts binding to a BRAF^RBD construct, inhibiting Ras signaling through a RAF effector. Compound is present in plate wells as a 10-point 3-fold dilution series starting at a final concentration of 30 μM. […]

IC50 recorded for this compound, C=CC(=O)N1CC[C@H](C(=O)N(C)[C@H](C(=O)N[C@H]2Cc3cc(O)cc(c3)-c3ccc4c(c3)c(c(-c3ccncc3CN(C)C)n4CC)CC(C)(C)COC(=O)[C@@H]3CCCN(N3)C2=O)C(C)C)C1 [Example A128] , is 100 to 1000 nM

IC50 recorded for this compound, C=CC(=O)N(C)[C@H]1C[C@@H](N(C)C(=O)N(C)[C@H](C(=O)N[C@H]2Cc3nc(cs3)-c3ccc4c(c3)c(c(-c3cccnc3[C@H](C)OC)n4CC)CC(C)(C)COC(=O)[C@@H]3CCCN(N3)C2=O)C(C)C)C1 (atropisomer, axis not shown) [Example A704] , is 10 to 100 nM

IC50 recorded for this compound, C=CC(=O)N1CCC[C@H]2CN(C(=O)N(C)[C@H](C(=O)N[C@H]3Cc4nc(cs4)-c4ccc5c(c4)c(c(-c4cccnc4[C@H](C)OC)n5CC)CC(C)(C)COC(=O)[C@@H]4CCCN(N4)C3=O)C(C)C)C[C@H]21 (atropisomer, axis not shown) [Example A618] , is 100 to 1000 nM

###

Could you please report measured pIC50 for the items listed next?
- Target or system: NRAS G12C (Homo sapiens (Human), UniProt P01111+P62937, G12C)
- Sequence (P01111 whole entry G12C): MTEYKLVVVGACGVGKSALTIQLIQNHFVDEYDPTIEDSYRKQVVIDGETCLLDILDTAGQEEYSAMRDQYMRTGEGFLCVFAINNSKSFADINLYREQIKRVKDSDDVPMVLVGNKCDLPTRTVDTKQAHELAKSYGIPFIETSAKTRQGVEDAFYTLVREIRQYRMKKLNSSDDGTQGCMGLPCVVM
- Sequence (P62937 whole entry): as the sequence (P62937 whole entry) above
- Protocol description: Ras-Raf (BRAF RBD) disruption / FRET / MOA assay, NRAS G12C
- Assay type: biochemical
- Details: read-out: IC50* NRAS G12C FRET data
pIC50: −log10 of the molar value.

pIC50 recorded for this compound, CCn1c(-c2cccnc2[C@H](C)OC)c2c3cc(ccc31)-c1csc(n1)C[C@H](NC(=O)[C@H](C(C)C)N(C)C(=O)N(C)C1CN(C(=O)/C=C/C3CN(C)C3)C1)C(=O)N1CCC[C@H](N1)C(=O)OCC(C)(C)C2 (atropisomer, axis not shown) , is 6.00 to 7.00

pIC50 recorded for this compound, CCn1c(-c2cccnc2[C@H](C)OC)c2c3cc(ccc31)-c1cccc(c1)C[C@H](NC(=O)[C@@H](COC1CN(C(=O)C#CC(C)(C)N3CCC3)C1)C(C)C)C(=O)N1CCC[C@H](N1)C(=O)OCC(C)(C)C2 (atropisomer, axis not shown) , is 7.00 to 8.00

pIC50 recorded for this compound, CCn1c(-c2cccnc2[C@H](C)OC)c2c3cc(ccc31)-c1cc(CF)cc(c1)C[C@H](NC(=O)[C@@H](COC1CN(C(=O)C#CC(C)(C)N(C)C)C1)C(C)C)C(=O)N1CCC[C@H](N1)C(=O)OCC(C)(C)C2 (atropisomer, axis not shown) , is 7.00 to 8.00

pIC50 recorded for this compound, C=CC(=O)N(C)[C@@H]1CCN(C(=O)N(C)[C@H](C(=O)N[C@H]2Cc3nc(cs3)-c3ccc4c(c3)c(c(-c3cccnc3[C@H](C)OC)n4CC)CC(C)(C)COC(=O)[C@@H]3CCCN(N3)C2=O)C(C)C)C1 (atropisomer, axis not shown) , is 6.00 to 7.00

pIC50 recorded for this compound, C=CC(=O)N1CC[C@H](C(=O)N(C)[C@H](C(=O)N[C@H]2Cc3cccc(c3F)-c3ccc4c(c3)c(c(-c3cccnc3[C@H](C)OC)n4CC)CC(C)(C)COC(=O)[C@@H]3CCCN(N3)C2=O)C(C)C)C1 (atropisomer, axis not shown) , is 6.00 to 7.00

###

- Target or system: KRAS G12V (Homo sapiens (Human), UniProt P01116+P62937, G12V)
- Sequence (P01116-2 other isoform, or with tags, fused parts or gaps G12V, one chain of several): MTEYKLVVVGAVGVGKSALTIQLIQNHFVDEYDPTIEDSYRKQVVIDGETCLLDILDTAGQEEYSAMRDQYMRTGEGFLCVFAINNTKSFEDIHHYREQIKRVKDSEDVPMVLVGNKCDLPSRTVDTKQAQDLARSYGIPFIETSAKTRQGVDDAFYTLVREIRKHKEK
- Protocol description: Ras-Raf (BRAF RBD) disruption / FRET / MOA assay, KRAS G12V
- Format: biochemical
- Details: read-out: IC50* KRAS G12V FRET data
pIC50: −log10 of the molar value.
Parameter measured: pIC50

pIC50 recorded for this compound, CCn1c(-c2cccnc2[C@H](C)OC)c2c3cc(ccc31)-c1csc(n1)C[C@H](NC(=O)[C@H](C(C)C)N(C)C(=O)N1C[C@@H]3CN(C(=O)C#CC(C)(C)N(C)C)CC[C@@H]31)C(=O)N1CCC[C@H](N1)C(=O)OCC(C)(C)C2 (atropisomer, axis not shown) , is 6.00 to 7.00

pIC50 recorded for this compound, CCn1c(-c2cncnc2)c2c3cc(ncc31)-c1cc(O)cc(c1)C[C@H](NC(=O)[C@H](C(C)C)N(C)C(=O)[C@H]1CCN(C(=O)C#CCN(C)C)C1)C(=O)N1CCC[C@H](N1)C(=O)OCC(C)(C)C2 , is 5.00 to 6.00

pIC50 recorded for this compound, C=CC(=O)N1CC(OC[C@H](C(=O)N[C@H]2Cc3nc(cs3)-c3ccc4c(c3)c(c(-c3cccnc3[C@H](C)OC)n4CC)CC(C)(C)COC(=O)[C@@H]3CCCN(N3)C2=O)C(C)C)C1 (atropisomer, axis not shown) , is 5.00 to 6.00

pIC50 recorded for this compound, C=CC(=O)Nc1ncc(C(=O)N(C)[C@H](C(=O)N[C@H]2Cc3cccc(c3)-c3ccc4c(c3)c(c(-c3cccnc3[C@H](C)OC)n4CC)CC(C)(C)COC(=O)[C@@H]3CCCN(N3)C2=O)C(C)C)n1C (atropisomer, axis not shown) , is 5.00 to 6.00

pIC50 recorded for this compound, C=CC(=O)N1CC[C@@H]2[C@H](C1)CN2C(=O)N(C)[C@H](C(=O)N[C@H]1Cc2nc(cs2)-c2ccc3c(c2)c(c(-c2cccnc2[C@H](C)OC)n3CC)CC(C)(C)COC(=O)[C@@H]2CCCN(N2)C1=O)C(C)C (atropisomer, axis not shown) , is 5.00 to 6.00
